assay: Particle size distribution and specific surface area (LS 200, Small Volume Module, Fraunhofer optical model); format: physicochemical; details: Particle Diameter (Lower) 10.78 μm
Field: Cum. < Volume %. Provide a value for each of the compounds that follow.
Write the answer as a number in %, unit excluded.

Hello, please tell me recorded Cum. < Volume % for this one: O=C([O-])CCNC(=O)c1ccc(/N=N/c2ccc(O)c(C(=O)[O-])c2)cc1.[Na+].[Na+] [Sample 3]
72.2

Answer with the recorded Cum. < Volume % of O=C(O)CCNC(=O)c1ccc(/N=N/c2ccc(O)c(C(=O)O)c2)cc1 [Feed Powder Sample B (#41.$02)] only.
28.1

Output measured Cum. < Volume % for this item: O=C([O-])CCNC(=O)c1ccc(/N=N/c2ccc(O)c(C(=O)[O-])c2)cc1.[Na+].[Na+] [Sample 1]
79.8

Determine its reported Cum. < Volume %: O=C([O-])CCNC(=O)c1ccc(/N=N/c2ccc(O)c(C(=O)[O-])c2)cc1.[Na+].[Na+] [Sample 4]
31.3
